Target: Adenosine A2 receptor (Rattus norvegicus, UniProt P29276+P30543)
Test: Binding affinity against Adenosine A2 receptor using [3H]NECA with 50 nM CPA in rat striatal brain membranes
Type: cell membranes, Membrane
measuredMetric: Ki (µM)
Your answer is read as µM, so omit the unit and give the number.

Some entries whose results are on file:
Value of measured Ki for the entry O[C@@H]1[C@H](O)[C@@H](CCl)O[C@H]1n1cnc2c(NC3CCCC3)ncnc21 : 1.87

Value of measured Ki for the entry O[C@@H]1[C@H](O)[C@@H](CCl)O[C@H]1n1cnc2c(N[C@H]3C[C@H]4CCC3C4)ncnc21 : 3.9

Value of measured Ki for the entry O[C@@H]1[C@H](O)[C@@H](CCl)O[C@H]1n1cnc2c(NC3C[C@H]4CCC3C4)ncnc21 (some centres undefined) : 2.1

--- query ---
Value of measured Ki for the entry O[C@@H]1[C@H](O)[C@@H](CCl)O[C@H]1n1cnc2c(N[C@@H]3C[C@@H]4CC[C@H]3C4)ncnc21 : 3
